Molecular target: mouse Tas2r105 (Mus musculus)
Construct: expressed in transfected cells; host or cells: HEK293T-Gα16gust44
Sequence (Q9JKT4 1-300): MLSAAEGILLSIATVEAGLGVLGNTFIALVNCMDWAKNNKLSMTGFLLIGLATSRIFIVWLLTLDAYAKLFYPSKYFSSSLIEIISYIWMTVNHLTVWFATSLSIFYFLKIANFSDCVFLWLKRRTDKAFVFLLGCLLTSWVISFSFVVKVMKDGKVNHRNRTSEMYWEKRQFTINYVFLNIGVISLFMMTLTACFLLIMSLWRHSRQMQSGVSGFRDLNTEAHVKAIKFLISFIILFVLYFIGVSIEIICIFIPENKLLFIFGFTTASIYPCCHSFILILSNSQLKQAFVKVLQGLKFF
Test: Calcium imaging assay (FLIPR), HEK293T-Gα16gust44 cells transfected with mouse Tas2r105
Assay type: cell-based
Settings: Time 56.781 s
quantity-measured: RLU (RLU)
Write the answer as a number in RLU, unit excluded.

QUERY: Which measured RLU belongs to C[C@H](CCC(=O)O)[C@H]1CC[C@H]2[C@@H]3CC[C@@H]4C[C@H](O)CC[C@]4(C)[C@H]3C[C@H](O)[C@]12C [Deoxycholic Acid, deoxycholic acid] , tested on mouse Tas2r105 (Mus musculus)?
RESULT: 5.269

QUERY: Which measured RLU belongs to C[C@H](CCC(=O)O)[C@H]1CC[C@H]2[C@@H]3[C@H](O)C[C@@H]4C[C@H](O)CC[C@]4(C)[C@H]3C[C@H](O)[C@]12C [Cholic Acid, cholic acid] , tested on mouse Tas2r105 (Mus musculus)?
RESULT: 273.677

QUERY: Which measured RLU belongs to C[C@H](CCC(=O)O)[C@H]1CC[C@H]2[C@@H]3CC[C@@H]4C[C@H](O)CC[C@]4(C)[C@H]3CC[C@]12C [Lithocholic Acid, lithocholic acid] , tested on mouse Tas2r105 (Mus musculus)?
RESULT: 91.8724

QUERY: Which measured RLU belongs to C[C@H](CCC(=O)NCC(=O)O)[C@H]1CC[C@H]2[C@@H]3[C@H](O)C[C@@H]4C[C@H](O)CC[C@]4(C)[C@H]3C[C@H](O)[C@]12C [Glycocholic Acid, glycocholic acid] , tested on mouse Tas2r105 (Mus musculus)?
RESULT: 299.791

* * *

target: human TAS2R14 (Homo sapiens, UniProt Q9NYV8); construct: expressed in transfected cells; host or cells: HEK293T-Gα16gust44; assay: Calcium imaging assay (FLIPR), HEK293T-Gα16gust44 cells transfected with human TAS2R14; format: cell-based; conditions: TAS2R14 trace; Time (s) 46.797 (Chenodeoxycholic Acid 46.781)
Sequence (Q9NYV8 whole entry): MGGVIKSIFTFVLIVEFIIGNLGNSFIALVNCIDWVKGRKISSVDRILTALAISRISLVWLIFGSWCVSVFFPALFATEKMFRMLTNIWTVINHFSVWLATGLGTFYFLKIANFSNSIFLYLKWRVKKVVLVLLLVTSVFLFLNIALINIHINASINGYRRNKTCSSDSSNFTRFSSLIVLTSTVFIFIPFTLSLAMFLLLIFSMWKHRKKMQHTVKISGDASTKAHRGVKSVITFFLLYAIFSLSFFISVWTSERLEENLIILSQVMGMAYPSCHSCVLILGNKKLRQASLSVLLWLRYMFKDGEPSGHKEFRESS
quantity-measured: RLU (RLU)
Write the answer as a number in RLU, unit excluded.

QUERY: Any idea what its RLU is? The compound is C[C@H](CCC(=O)NCCS(=O)(=O)O)[C@H]1CC[C@H]2[C@@H]3CC[C@@H]4C[C@H](O)CC[C@]4(C)[C@H]3CC[C@]12C
RESULT: 99.8168

QUERY: Any idea what its RLU is? The compound is C[C@H](CCC(=O)NCCS(=O)(=O)O)[C@H]1CC[C@H]2[C@@H]3[C@H](O)C[C@@H]4C[C@H](O)CC[C@]4(C)[C@H]3C[C@H](O)[C@]12C
RESULT: 297.017

QUERY: Any idea what its RLU is? The compound is C[C@H](CCC(=O)NCC(=O)O)[C@H]1CC[C@H]2[C@@H]3[C@H](O)C[C@@H]4C[C@H](O)CC[C@]4(C)[C@H]3C[C@H](O)[C@]12C
RESULT: 253.169

QUERY: Any idea what its RLU is? The compound is C[C@H](CCC(=O)O)[C@H]1CC[C@H]2[C@@H]3[C@H](O)C[C@@H]4C[C@H](O)CC[C@]4(C)[C@H]3CC[C@]12C
RESULT: 412.285

QUERY: Any idea what its RLU is? The compound is C[C@H](CCC(=O)O)[C@H]1CC[C@H]2[C@@H]3[C@H](O)C[C@@H]4C[C@H](O)CC[C@]4(C)[C@H]3C[C@H](O)[C@]12C
RESULT: 432.303

* * *

Biological target: human TAS2R4 (Homo sapiens, UniProt Q9NYW5)
Construct: expressed in transfected cells; host or cells: HEK293T-Gα16gust44
Sequence (Q9NYW5 1-299): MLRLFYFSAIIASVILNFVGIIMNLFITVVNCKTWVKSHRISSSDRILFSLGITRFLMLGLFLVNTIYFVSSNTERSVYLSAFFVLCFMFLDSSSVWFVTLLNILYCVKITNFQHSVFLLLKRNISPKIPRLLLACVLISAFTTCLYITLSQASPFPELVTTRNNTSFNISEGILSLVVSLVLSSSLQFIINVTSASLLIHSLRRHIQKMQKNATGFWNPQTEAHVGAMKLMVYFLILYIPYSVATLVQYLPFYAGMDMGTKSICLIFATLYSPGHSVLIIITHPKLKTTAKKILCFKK
Test: Calcium imaging assay (FLIPR), HEK293T-Gα16gust44 cells transfected with human TAS2R4
Assay type: cell-based
Settings: Time (s) 167.547
Provide the reported RLU, fluorescence trace of each item.
Write the answer as a number in RLU, unit excluded.

QUERY: Any idea what its RLU, fluorescence trace is? The compound is C[C@H](CCC(=O)O)[C@H]1CC[C@H]2[C@@H]3CC[C@@H]4C[C@H](O)CC[C@]4(C)[C@H]3C[C@H](O)[C@]12C
RESULT: 335.87

QUERY: Any idea what its RLU, fluorescence trace is? The compound is C[C@H](CCC(=O)O)[C@H]1CC[C@H]2[C@@H]3[C@@H](O)C[C@@H]4C[C@H](O)CC[C@]4(C)[C@H]3CC[C@]12C
RESULT: 173.823

QUERY: Any idea what its RLU, fluorescence trace is? The compound is C[C@H](CCC(=O)NCC(=O)O)[C@H]1CC[C@H]2[C@@H]3[C@H](O)C[C@@H]4C[C@H](O)CC[C@]4(C)[C@H]3C[C@H](O)[C@]12C
RESULT: 312.32

* * *

molecular target: human TAS2R4 (Homo sapiens, UniProt Q9NYW5); construct: expressed in transfected cells; host or cells: HEK293T-Gα16gust44; experiment: Calcium imaging assay (FLIPR), HEK293T-Gα16gust44 cells transfected with human TAS2R4; assay type: cell-based; conditions: Time (s) 104.781 (TCA, TLCA: 104.782); also: test concentration or dose not given here
// returns false (0) unless RLU, fluorescence trace is strictly below 500 RLU, in which case true (1)

QUERY: Hi there! Is RLU, fluorescence trace for C[C@H](CCC(=O)O)[C@H]1CC[C@H]2[C@@H]3[C@@H](O)C[C@@H]4C[C@H](O)CC[C@]4(C)[C@H]3CC[C@]12C below 500 RLU, do you know?
RESULT: true (1)

QUERY: Hi there! Is RLU, fluorescence trace for C[C@H](CCC(=O)O)[C@H]1CC[C@H]2[C@@H]3[C@H](O)C[C@@H]4C[C@H](O)CC[C@]4(C)[C@H]3C[C@H](O)[C@]12C below 500 RLU, do you know?
RESULT: false (0)

QUERY: Hi there! Is RLU, fluorescence trace for C[C@H](CCC(=O)NCCS(=O)(=O)O)[C@H]1CC[C@H]2[C@@H]3CC[C@@H]4C[C@H](O)CC[C@]4(C)[C@H]3CC[C@]12C below 500 RLU, do you know?
RESULT: true (1)

QUERY: Hi there! Is RLU, fluorescence trace for C[C@H](CCC(=O)NCC(=O)O)[C@H]1CC[C@H]2[C@@H]3[C@H](O)C[C@@H]4C[C@H](O)CC[C@]4(C)[C@H]3C[C@H](O)[C@]12C below 500 RLU, do you know?
RESULT: false (0)

QUERY: Hi there! Is RLU, fluorescence trace for C[C@H](CCC(=O)O)[C@H]1CC[C@H]2[C@@H]3CC[C@@H]4C[C@H](O)CC[C@]4(C)[C@H]3C[C@H](O)[C@]12C below 500 RLU, do you know?
RESULT: true (1)

QUERY: Hi there! Is RLU, fluorescence trace for C[C@H](CCC(=O)NCCS(=O)(=O)O)[C@H]1CC[C@H]2[C@@H]3[C@H](O)C[C@@H]4C[C@H](O)CC[C@]4(C)[C@H]3C[C@H](O)[C@]12C below 500 RLU, do you know?
RESULT: false (0)

* * *

Provide the reported RLU of each item.
target: human TAS2R1 (Homo sapiens, UniProt Q9NYW7); construct: expressed in transfected cells; host or cells: HEK293T-Gα16gust44; assay: Calcium imaging assay (FLIPR), HEK293T-Gα16gust44 cells transfected with human TAS2R1; assay type: cell-based; conditions: calcium trace, sheet TAS2R1; Time 341.547 s
Sequence (Q9NYW7 whole entry): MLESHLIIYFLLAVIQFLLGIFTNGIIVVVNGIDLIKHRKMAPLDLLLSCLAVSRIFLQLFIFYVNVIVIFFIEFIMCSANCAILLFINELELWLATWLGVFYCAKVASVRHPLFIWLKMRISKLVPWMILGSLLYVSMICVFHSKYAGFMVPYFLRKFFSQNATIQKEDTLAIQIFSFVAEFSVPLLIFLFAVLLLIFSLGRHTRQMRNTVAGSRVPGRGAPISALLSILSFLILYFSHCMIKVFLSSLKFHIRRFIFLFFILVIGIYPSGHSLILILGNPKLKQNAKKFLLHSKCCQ
Write the answer as a number in RLU, unit excluded.

QUERY: Any idea what its RLU is? The molecule is C[C@H](CCC(=O)NCC(=O)O)[C@H]1CC[C@H]2[C@@H]3[C@H](O)C[C@@H]4C[C@H](O)CC[C@]4(C)[C@H]3C[C@H](O)[C@]12C
RESULT: 32.1596

QUERY: Any idea what its RLU is? The molecule is C[C@H](CCC(=O)NCCS(=O)(=O)O)[C@H]1CC[C@H]2[C@@H]3CC[C@@H]4C[C@H](O)CC[C@]4(C)[C@H]3CC[C@]12C
RESULT: -222.174

QUERY: Any idea what its RLU is? The molecule is C[C@H](CCC(=O)O)[C@H]1CC[C@H]2[C@@H]3CC[C@@H]4C[C@H](O)CC[C@]4(C)[C@H]3C[C@H](O)[C@]12C
RESULT: 152.792

QUERY: Any idea what its RLU is? The molecule is C[C@H](CCC(=O)NCCS(=O)(=O)O)[C@H]1CC[C@H]2[C@@H]3[C@H](O)C[C@@H]4C[C@H](O)CC[C@]4(C)[C@H]3C[C@H](O)[C@]12C
RESULT: 7.052
